The measured values listed here are drawn from ChEMBL document CHEMBL1667844.

Test system: HepG2
assayNotes: Cytotoxicity against human HepG2 cells after 48 hrs by MTT assay
Assay type: functional, cell-based
testConditions: HepG2, 48 h
pIC50: −log10 of the molar value.
Assign class by pIC50: not lower than 5 means Criterion met; lower than 5 means Criterion not met.

Some solved cases for reference:
chemicalStructure	discreteLabel
O=C(CSc1nc2ccc(NC(=O)CCl)cc2s1)NCc1ccc(Cl)cc1	Criterion met
O=C(CSc1nc2ccc(NC(=O)c3ccc([N+](=O)[O-])cc3)cc2s1)NCc1ccc(Cl)cc1	Criterion not met
CC(=O)Nc1ccc2nc(SCC(=O)NCc3ccc(Cl)cc3)sc2c1	Criterion met
O=C(CSc1nc2ccc(NC(=O)c3ccc([N+](=O)[O-])cc3)cc2s1)NCc1ccccc1	Criterion not met
O=C(CSc1nc2ccc(NC(=O)c3ccccc3)cc2s1)NCc1ccc(Cl)cc1	Criterion not met
CNC(=O)CSc1nc2ccc(NC(=O)c3ccccc3OC)cc2s1	Criterion not met

Next item in the queue.
Request: Record "O=C(CSc1nc2ccc(NC(=O)c3ccccc3)cc2s1)NCc1ccccc1" ; criterion: pIC50 no lower than 5. Met?
Response: Criterion not met
